Molecular target: human GABAA α2β2γ1 receptor (Homo sapiens (Human), UniProt P47869+Q8N1C3)
Assay: Radioligand binding assay for γ1-containing GABAA subtypes, [3H]RO7239181 competition (α2β2γ1)
Conditions: Ki h-GABAA α2β2γ1, displacement of [3H]RO7239181, membranes of HEK293F cells expressing human receptors, means of two determinations
Experimental: The affinity of compounds at GABAA γ1 subunit-containing receptors was measured by competition for [^3H]RO7239181 (67.3 Ci/mmol; Roche) binding to membranes from HEK293F cells (ThermoFisher R79007) expressing human (transiently transfected) receptors of composition α5β2γ1, α2β2γ1, α1β2γ1. […]
property: Ki (nM)

C[C@@H]1N=C(c2c(F)cccc2F)c2c(ccc(C(F)(F)F)c2Cl)-n2nc(C(=O)NN3CCCC3)nc21 [Example 118] = 24.4
C[C@@H]1N=C(c2ncccc2F)c2c(ccc(Cl)c2Cl)-n2nc(C(=O)N3CC4(COC4)C3)nc21 [Example 102] = 51.5
CC1CN(C(=O)c2nc3n(n2)-c2ccc(Cl)c(Cl)c2C(c2ncccc2F)=N[C@H]3C)C1 [Example 87] = 55.2
C[C@@H]1N=C(c2ncccc2F)c2c(ccc(C(F)(F)F)c2Cl)-n2nc(C(=O)NCCF)nc21 [Example 152] = 89.9
O=C(c1nc2n(n1)-c1ccc(Cl)c(Cl)c1C(c1c(F)cccc1F)=NC2)N1CCC1 [Example 8] = 8.2
C[C@@H]1N=C(c2c(F)cccc2F)c2c(ccc(Cl)c2Cl)-n2cc(C(=O)N3CCC3)nc21 [Example 70] = 18.7
COCc1nc2n(n1)-c1ccc(Cl)c(Cl)c1C(c1c(F)cccc1F)=N[C@H]2C [Example 27] = 11.4

----------
Target: human GABAA α1β3γ2 receptor (Homo sapiens (Human), UniProt P14867+P18507)
Test: Radioligand binding assay for γ2-containing GABAA subtypes, [3H]Flumazenil competition (α1β3γ2)
Settings: Log[Ki α1β3γ2 (nM)/Ki α2β2γ1 (nM)]
Lab note - cut at 2 for LogSel: T if strictly below, F if not.

COC1CN(C(=O)c2nc3n(n2)-c2ccc(C(F)(F)F)c(Cl)c2C(c2c(F)cccc2F)=NC3)C1 = F
O=C(c1nc2n(n1)-c1ccc(Cl)c(Cl)c1C(c1c(F)cccc1F)=NC2)N1CCC1 = T
C[C@@H]1N=C(c2c(F)cccc2F)c2c(ccc(Cl)c2Cl)-n2nc(C(=O)N3CC4(CCOCC4)C3)nc21 = F
C[C@@H]1N=C(c2c(F)cccc2F)c2c(ccc(Cl)c2Cl)-n2nc(C(=O)N3CC(C(F)F)C3)nc21 = T
C[C@@H]1N=C(c2ncccc2F)c2c(ccc(C(F)(F)F)c2Cl)-n2cc(C(=O)NCC3(O)CC3)nc21 = F
CCOC1CN(C(=O)c2nc3n(n2)-c2ccc(C(F)(F)F)c(Cl)c2C(c2ncccc2F)=N[C@H]3C)C1 = F
COCCNC(=O)c1nc2n(n1)-c1ccc(Cl)c(Cl)c1C(c1c(F)cccc1F)=N[C@H]2C = F
C[C@@H]1N=C(c2c(F)cccc2F)c2c(ccc(Cl)c2Cl)-n2nc(N3CCS(=O)(=O)CC3)nc21 = T
COC1CN(C(=O)c2nc3n(n2)-c2ccc(C(F)(F)F)c(Cl)c2C(c2ncccc2F)=N[C@H]3C)C1 = F
C[C@@H]1N=C(c2ncccc2F)c2c(ccc(Cl)c2Cl)-n2nc(C(=O)N3CC4(CCCO4)C3)nc21 = F
C[C@@H]1N=C(c2c(F)cccc2F)c2c(ccc(C(F)(F)F)c2Cl)-n2c(CO)cnc21 = T
CNS(=O)(=O)c1nc2n(n1)-c1ccc(Cl)c(Cl)c1C(c1c(F)cccc1F)=N[C@H]2C = T
COC1CN(C(=O)c2nc3n(n2)-c2ccc(Cl)c(Cl)c2C(c2c(F)cccc2F)=NC3)C1 = F
C[C@@H]1N=C(c2c(F)cccc2F)c2c(ccc(Cl)c2Cl)-n2nc(C(=O)NCCO)nc21 = F

----------
Molecular target: human GABAA α5β2γ1 receptor (Homo sapiens (Human), UniProt P31644+Q8N1C3)
Test: Radioligand binding assay for γ1-containing GABAA subtypes, [3H]RO7239181 competition (α5β2γ1)
Lab note - cut at 3 nM for Ki: satisfied if strictly below, not satisfied if not.

C[C@@H]1N=C(c2c(F)cccc2F)c2c(ccc(Cl)c2Cl)-n2nc(C(=O)N3CC[C@H](F)C3)nc21 = satisfied
C[C@@H]1N=C(c2c(F)cccc2F)c2c(ccc(Cl)c2Cl)-n2nc(C(=O)N3CC(C(F)F)C3)nc21 = satisfied
C[C@@H]1N=C(c2ncccc2F)c2c(ccc(Cl)c2Cl)-n2nc(C(=O)N3CC4(CCCO4)C3)nc21 = not satisfied
C[C@@H]1N=C(c2c(F)cccc2F)c2c(ccc(Cl)c2Cl)-n2nc(OC3COC3)nc21 = not satisfied
C[C@@H]1N=C(c2c(F)cccc2F)c2c(ccc(C(F)(F)F)c2Cl)-n2c(CO)cnc21 = satisfied
CN(C)C(=O)c1nc2n(n1)-c1ccc(Cl)c(Cl)c1C(c1c(F)cccc1F)=NC2 = satisfied
C[C@@H]1N=C(c2ncccc2F)c2c(ccc(C(F)(F)F)c2Cl)-n2cc(C(=O)N[C@H]3C[C@H](O)C3)nc21 = not satisfied

----------
Molecular target: human GABAA α5β2γ1 receptor (Homo sapiens (Human), UniProt P31644+Q8N1C3)
Assay: Radioligand binding assay for γ1-containing GABAA subtypes, [3H]RO7239181 competition (α5β2γ1)
pKi: −log10 of the molar value.
property: pKi

C[C@@H]1N=C(c2c(F)cccc2F)c2c(ccc(Cl)c2Cl)-n2nc(C(=O)N3CC[C@@H](O)C3)nc21 = 8.84
C[C@@H]1N=C(c2ncccc2F)c2c(ccc(C(F)(F)F)c2Cl)-n2cc(C(=O)N[C@H]3C[C@@H](O)C3)nc21 = 8.04
C[C@@H]1N=C(c2c(F)cccc2F)c2c(ccc(Cl)c2Cl)-n2nc(N3CCS(=O)(=O)CC3)nc21 = 8.90
CNS(=O)(=O)c1nc2n(n1)-c1ccc(Cl)c(Cl)c1C(c1c(F)cccc1F)=N[C@H]2C = 8.53

----------
Target: human GABAA α1β3γ2 receptor (Homo sapiens (Human), UniProt P14867+P18507)
Experiment: Radioligand binding assay for γ2-containing GABAA subtypes, [3H]Flumazenil competition (α1β3γ2)
property: log10(Ki) (log10 of the value in nM)

C[C@@H]1N=C(c2c(F)cccc2F)c2c(ccc(Cl)c2Cl)-n2nc(C(=O)NCC(F)F)nc21 = 2.81
C[C@@H]1N=C(c2c(F)cccc2F)c2c(ccc(Cl)c2Cl)-n2nc(C(=O)N3CCC3)nc21 = 2.89
C[C@@H]1N=C(c2c(F)cccc2F)c2c(ccc(C(F)(F)F)c2Cl)-n2c1nc1c2CCC1 = 2.92
C[C@@H]1N=C(c2ncccc2F)c2c(ccc(C(F)(F)F)c2Cl)-n2nc(NC(=O)NC3CC3)nc21 = 4.13
CNS(=O)(=O)c1nc2n(n1)-c1ccc(Cl)c(Cl)c1C(c1c(F)cccc1F)=N[C@H]2C = 3.34
C[C@@H]1N=C(c2c(F)cccc2F)c2c(ccc(C(F)(F)F)c2Cl)-n2nc(C(=O)N3CCC3)nc21 = 3.26
Cc1nc2n(n1)-c1ccc(C(F)(F)F)c(Cl)c1C(c1ncccc1F)=N[C@H]2C = 3.74
C[C@@H]1N=C(c2c(F)cccc2F)c2c(ccc(Cl)c2Cl)-n2nc(C(=O)N3CC4(COC4)C3)nc21 = 3.11
Cc1cn2c(n1)[C@H](C)N=C(c1c(F)cccc1F)c1c-2ccc(C(F)(F)F)c1Cl = 2.94
CNC(=O)c1cn2c(n1)CN=C(c1ncccc1F)c1c-2ccc(Cl)c1Cl = 2.70
C[C@@H]1N=C(c2ncccc2F)c2c(ccc(Cl)c2Cl)-n2nc(C(=O)N3CC[C@@H](F)C3)nc21 = 3.84
C[C@@H]1N=C(c2ncccc2F)c2c(ccc(Cl)c2Cl)-n2nc(C(=O)N3CC4(CCOCC4)C3)nc21 = 3.97
C[C@H](O)CNC(=O)c1nc2n(n1)-c1ccc(C(F)(F)F)c(Cl)c1C(c1c(F)cccc1F)=N[C@H]2C = 3.49
C[C@@H]1N=C(c2ncccc2F)c2c(ccc(C(F)(F)F)c2Cl)-n2nc(C(=O)N3CC4(CCCO4)C3)nc21 = 4.06

----------
As shown below, each of these compounds has a reported Ki value.
Target: human GABAA α1β3γ2 receptor (Homo sapiens (Human), UniProt P14867+P18507)
Test: Radioligand binding assay for γ2-containing GABAA subtypes, [3H]Flumazenil competition (α1β3γ2)
Procedure: The affinity of compounds at GABAA γ2 subunit-containing receptors was measured by competition for [^3H]Flumazenil (81.1 Ci/mmol; Roche) binding to HEK293F cells expressing human (transiently transfected) receptors of composition α1β3γ2. Harvested pellets from HEK293F cells expressing the different GABAA γ2 receptor subtypes were resuspended in Mannitol Buffer pH 7.2-7.4 and processed as described above for the cells expressing the GABAA γ1 subunit-containing receptors. […]
property: Ki (nM)

COC1CN(C(=O)c2nc3n(n2)-c2ccc(C(F)(F)F)c(Cl)c2C(c2c(F)cccc2F)=N[C@H]3C)C1 [Example 23] = 1140
C[C@@H]1N=C(c2c(F)cccc2F)c2c(ccc(C(F)(F)F)c2Cl)-n2ncnc21 [Example 22] = 1560
CO[C@H]1CCN(C(=O)c2nc3n(n2)-c2ccc(Cl)c(Cl)c2C(c2ncccc2F)=N[C@H]3C)C1 [Example 89] = 6350
C[C@@H]1N=C(c2c(F)cccc2F)c2c(ccc(C(F)(F)F)c2Cl)-n2nc(C(=O)N3CC(OC(F)F)C3)nc21 [Example 51] = 1560
CCOC1CN(C(=O)c2nc3n(n2)-c2ccc(Cl)c(Cl)c2C(c2ncccc2F)=N[C@H]3C)C1 [Example 86] = 2050
C[C@@H]1N=C(c2c(F)cccc2F)c2c(ccc(Cl)c2Cl)-n2nc(C(=O)N3CC[C@@H](O)C3)nc21 [Example 47] = 1010
Cc1nc2n(n1)-c1ccc(C(F)(F)F)c(Cl)c1C(c1c(F)cccc1F)=N[C@H]2C [Example 29] = 1090
